- test target: UniProt:Q06187
- Sequence (Q06187 402-655 limits assumed): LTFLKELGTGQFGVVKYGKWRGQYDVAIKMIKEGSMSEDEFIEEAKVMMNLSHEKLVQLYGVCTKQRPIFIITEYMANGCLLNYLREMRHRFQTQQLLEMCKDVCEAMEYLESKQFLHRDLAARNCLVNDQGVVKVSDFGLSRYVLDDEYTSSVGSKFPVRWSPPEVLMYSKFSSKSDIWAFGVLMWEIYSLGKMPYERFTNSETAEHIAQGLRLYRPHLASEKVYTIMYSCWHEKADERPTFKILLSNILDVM
- assay text: biochemical
- study conditions: read-out: BTK inhibition (%), 0.75 uM BTK, […] probe 3l, 15 min preincubation
readout type: inhibition at 10 µM
Reply with the number and its unit after it.

Some solved entries appear below for comparison.
>>> result("O=C1N=C(N2CCOCC2)CN1c1ccc(Cl)cc1 [PCM-0216140]")
"-1.5%"
>>> result("COc1cc(C(=O)O)cc(OC)c1OC [PCM-0215032]")
"-21%"
>>> result("O=C(O)[C@H]1CSC(c2nc3ccc(O)cc3s2)=N1 [PCM-0215581]")
"-16.2%"
>>> result("C[C@@H]1CC[C@@]2(OC1)O[C@H]1C[C@H]3[C@@H]4CC=C5C[C@@H](O)C[C@@H](O)[C@]5(C)[C@H]4CC[C@]3(C)[C@H]1[C@@H]2C [PCM-0216451]")
"-20.8%"
>>> result("CC(C)NCC(O)COc1ccc(COCCOC(C)C)cc1 (stereo not drawn) [PCM-0064988]")
"-31.9%"
>>> result("NCC1OC(OC2C(N)CC(N)C(OC3OC(CO)C(O)C(N)C3O)C2O)C(N)CC1O (stereo not drawn) [PCM-0086125]")
"21.3%"

Field request: inhibition at 10 µM | item: Cn1c(N2CCCCS2(=O)=O)nc(C(=O)NCc2ccc(F)cc2)c(O)c1=O [PCM-0094999]
-20.2%

I'd like to know its inhibition at 10 µM. The compound in question is CCCCCCCCCCCCCCCC(=O)OC [PCM-0216632]
25.5%

I have this compound here, CC(C)Oc1ccc(-c2cnc3c(-c4ccnc5ccccc45)cnn3c2)cc1 [PCM-0215300] , and I need its recorded inhibition at 10 µM.
-1.5%
